assay: photoluminescence quantum yield (fraction); solvent given as SMILES; details: in ClCCl
Threshold 0.3: photoluminescence quantum yield strictly smaller gives condition met, otherwise condition not met.

[[record]]
smiles_repr = "CCCCN(CCCC)c1ccc(C#Cc2cc(C#Cc3ccc(C#N)cc3)c(C#Cc3ccc(C#N)cc3)cc2C#Cc2ccc(N(CCCC)CCCC)cc2)cc1"
category = "condition met"

[[record]]
smiles_repr = "c1ccc([Si]2(c3ccccc3)c3ccccc3-c3cc4c(cc32)-c2ccccc2[Si]4(c2ccccc2)c2ccccc2)cc1"
category = "condition not met"

[[record]]
smiles_repr = "CCn1c2cc(C(C)(C)C)ccc2c2c3nsnc3c3c4ccc(C(C)(C)C)cc4n(CC)c3c21"
category = "condition met"

[[record]]
smiles_repr = "N#Cc1ccc(-c2cnc3cccc(-c4ccccc4)n23)cc1"
category = "condition met"

[[record]]
smiles_repr = "F[B-]1(F)OC(C#Cc2ccccc2)=CC(c2ccccc2)=[O+]1"
category = "condition not met"


---

assay: photoluminescence quantum yield (fraction); solvent given as SMILES; details: in ClCCl
Recorded photoluminescence quantum yield, one value per entry.
Measurement Kind: photoluminescence quantum yield

[[record]]
smiles_repr = "CN(C)c1ccc(/C=C2\\CC/C(=C\\c3ccc(N(C)C)cc3)C2=O)cc1"
measured = 0.16

[[record]]
smiles_repr = "CCC1=C(C)C2=C(/C=C/c3ccc(OC)cc3)c3c(C)c(CC)c(C)n3[B-](F)(F)[N+]2=C1C"
measured = 0.01

[[record]]
smiles_repr = "COc1ccc(C(=O)NN2C3=C(CC4=C2CCCC4=O)C(=O)CCC3)cc1"
measured = 0.57

[[record]]
smiles_repr = "C(#Cc1nc(C#Cc2ccccc2)c(C#Cc2ccccc2)c(C#Cc2ccccc2)c1C#Cc1ccccc1)c1ccccc1"
measured = 0.55

[[record]]
smiles_repr = "N#C/C(=C\\c1ccc(C#N)cc1)c1nc(-c2ccccc2)cs1"
measured = 0.131

[[record]]
smiles_repr = "O=C(O)c1ccc2ccc3cccc4ccc1c2c34"
measured = 0.63

[[record]]
smiles_repr = "F[B-]1(F)n2c(-c3ccccc3)c3ccc4ccccc4c3c2N=C2c3c(ccc4ccccc34)C(c3ccccc3)=[N+]21"
measured = 0.14

[[record]]
smiles_repr = "CCOC(=O)COc1ccc(/C=C/c2cc(C)c3n2[B-](F)(F)[N+]2=C(c4[nH]c(C)cc4C)c4ccccc4C2=C3)cc1"
measured = 0.75

[[record]]
smiles_repr = "CC(C)(C)c1ccc(C2=CC3=C(c4ccccc4)c4cc(-c5ccc(C(C)(C)C)cc5)c(-c5ccc(C(C)(C)C)cc5)n4[B-](F)(F)[N+]3=C2c2ccc(C(C)(C)C)cc2)cc1"
measured = 0.3

[[record]]
smiles_repr = "F[B-]1(F)OC(/C=C/c2ccccc2)=CC(c2ccccc2)=[O+]1"
measured = 0.02

[[record]]
smiles_repr = "Cc1cc(C)c(C2=C3C=C(/C=C/C(=O)OC(C)(C)C)C=[N+]3[B-](F)(F)n3c2ccc3N2CCOCC2)c(C)c1"
measured = 0.49

[[record]]
smiles_repr = "CC(=O)Nc1cccc2c1C#Cc1c(cccc1C(=O)N(C)C)OCCCO2"
measured = 0.012

[[record]]
smiles_repr = "c1ccc2c(c1)-c1ccccc1[Si]21c2ccccc2-c2cc3c(cc21)-c1ccccc1[Si]31c2ccccc2-c2ccccc21"
measured = 0.59

[[record]]
smiles_repr = "COc1cc(OC)c2cc(C#N)c(=N)oc2c1"
measured = 0.047


---

assay: photoluminescence quantum yield (fraction); solvent given as SMILES; conditions: in c1ccccc1
Measurement Kind: photoluminescence quantum yield

[[record]]
smiles_repr = "O=C1/C(=C/C=C/c2cc3c4c(c2)CCCN4CCC3)CC/C1=C\\C=C\\c1cc2c3c(c1)CCCN3CCC2"
measured = 0.3

[[record]]
smiles_repr = "CN(C)c1ccc(C#Cc2ccc(C#Cc3ccc(C#Cc4ccccc4C#N)cc3C#N)cc2C#N)cc1"
measured = 0.999

[[record]]
smiles_repr = "CN(C)c1ccc2nc(-c3ccccc3)c(=O)oc2c1"
measured = 0.526

[[record]]
smiles_repr = "CC(C)[Si]1(C(C)C)c2cc(N(C)C)ccc2-c2ccc(C(F)(F)F)cc21"
measured = 0.29

[[record]]
smiles_repr = "COc1ccc(-c2nc3c(ccc4ccccc43)oc2=O)cc1"
measured = 0.57

[[record]]
smiles_repr = "c1csc(-c2cnc(-c3cccs3)c3nonc23)c1"
measured = 0.4

[[record]]
smiles_repr = "O=c1oc2ccc3ccccc3c2nc1-c1ccccc1"
measured = 0.46

[[record]]
smiles_repr = "O=C(c1ccc(N(c2ccccc2)c2ccccc2)cc1)[C@H]1[C@H](c2ccc(F)cc2)C[C@](O)(c2ccccn2)C[C@]1(O)c1ccccn1"
measured = 0.74


---

experiment: photoluminescence quantum yield (fraction); solvent given as SMILES; settings: in Cc1ccccc1
Recorded photoluminescence quantum yield, one value per entry.
Measurement Kind: photoluminescence quantum yield

[[record]]
compound = "CCN(CC)c1ccc2cc(/C=C/C3=C4CC/C(=C\\c5cc6ccc(N(CC)CC)cc6oc5=O)C4=[O+][B-](F)(F)O3)c(=O)oc2c1"
measured = 0.4

[[record]]
compound = "O=C(c1ccncc1)c1ccc(-n2c3ccc(-n4c5ccccc5c5ccccc54)cc3c3cc(-n4c5ccccc5c5ccccc54)ccc32)cc1"
measured = 0.243

[[record]]
compound = "[C-]#[N+]c1ccc(-c2ccc(N)cc2)cc1"
measured = 0.68

[[record]]
compound = "CC1=CC(/C=C/c2ccccc2)=[N+]2C1=C(c1ccccc1)c1c(C)cc(/C=C/c3ccccc3)n1[B-]2(F)F"
measured = 0.59

[[record]]
compound = "F[B-]1(F)n2c(-c3cccs3)cc(-c3cccs3)c2N=C2C(c3cccs3)=CC(c3cccs3)=[N+]21"
measured = 0.1

[[record]]
compound = "Cc1cc(C)n2c1C=C1c3ccccc3C(c3cccn3C)=[N+]1[B-]2(F)F"
measured = 0.94

[[record]]
compound = "COc1ccc(-c2nc3ccccc3nc2/C=C/N2CCCC2)s1"
measured = 0.095

[[record]]
compound = "Cc1cc(C)n2c1C=C1c3ccccc3C(c3c[nH]c4ccccc34)=[N+]1[B-]2(F)F"
measured = 0.96

[[record]]
compound = "CCN(CC)c1ccc2cc(/C=C(\\C#N)c3nc4ccccc4o3)c(=O)oc2c1"
measured = 0.0061

[[record]]
compound = "COc1ccccc1C1=NC2c3cccc4cccc(c34)C2N1c1ccccc1 (centres undefined)"
measured = 0.01

[[record]]
compound = "O=C(c1ccc(C(=O)c2ccc(N3c4ccccc4Oc4ccccc43)cc2)cc1)c1ccc(N2c3ccccc3Oc3ccccc32)cc1"
measured = 0.1

[[record]]
compound = "CC(C)(C)c1ccc2c(c1)c1cc(C(C)(C)C)ccc1n2-c1ccc(-c2ccc3c(c2)C(=O)c2ccc(-c4ccc(-n5c6ccc(C(C)(C)C)cc6c6cc(C(C)(C)C)ccc65)cc4)cc2C3=O)cc1"
measured = 0.6

[[record]]
compound = "CCOc1ccc(/C=C/C=C/C=C/c2ccc([N+](=O)[O-])cc2)cc1"
measured = 0.5

[[record]]
compound = "CCC1=C(C)C2=Cc3c4ccccc4c4n3[B-](c3ccccc3)(Oc3ccccc3-4)[N+]2=C1C (centres undefined)"
measured = 0.64

[[record]]
compound = "CCOC(=O)/C(C#N)=C\\c1ccc2c(c1)c1ccccc1n2-c1ccc(C)cc1"
measured = 0.095

[[record]]
compound = "CCn1c2ccccc2c2cc(-c3cc(-c4ccc5c(c4)c4ccccc4n5CC)nc(-c4ccc(OC)cc4)n3)ccc21"
measured = 0.54

[[record]]
compound = "F[B-]1(F)Oc2ccccc2-c2nc(-c3ccccc3)c3ccccc3[n+]21"
measured = 0.013

[[record]]
compound = "CC1(C)c2ccccc2-n2c(-c3ccc(N4c5ccccc5Oc5ccccc54)cc3)nc3cccc1c32"
measured = 0.31

[[record]]
compound = "c1ccc2c(c1)Oc1ccccc1N2c1ccc(-c2nnc(-c3ccc(N4c5ccccc5Oc5ccccc54)cc3)o2)cc1"
measured = 0.431


---

assay: photoluminescence quantum yield (fraction); solvent given as SMILES; details: in CO
Label Met when photoluminescence quantum yield is at or above 0.1; anything below gets Not met.

[[record]]
compound = "Cc1ccc2c(c1)nnn2-c1c(C#N)c2c(N)ncnc2n1[C@H]1C[C@H](O)[C@@H](CO)O1"
category = "Not met"

[[record]]
compound = "COc1c(/C=N/Nc2ccc(C#N)cc2)ccc2ccccc12"
category = "Met"

[[record]]
compound = "C#CCN1C(=O)/C(=C/c2cc(OC(C)C)ccc2OC(C)C)N=C1C"
category = "Not met"

[[record]]
compound = "CN(C)c1ccc2c(c1)[Si](C)(C)C1=CC(=[N+](C)C)C=CC1=C2C#Cc1ccccc1"
category = "Not met"

[[record]]
compound = "CCC1=C(C)C2=C(C)c3c(I)c(I)cn3[B-](F)(F)[N+]2=C1C"
category = "Not met"

[[record]]
compound = "Clc1ccc(/C=C(\\c2ccccc2)c2nc3ccccc3s2)cc1"
category = "Not met"

[[record]]
compound = "CC(=O)Nc1cc2ccc3cccc4ccc(c1)c2c34"
category = "Not met"

[[record]]
compound = "CCOC(=O)COc1ccc(/C=C/c2cc(C)c3n2[B-](F)(F)[N+]2=C(c4[nH]c(C)cc4C)c4ccccc4C2=C3)cc1"
category = "Not met"

[[record]]
compound = "CCOC(=O)COc1ccc(/C=C/C2=C3c4ccccc4C(c4ccc[nH]4)=[N+]3[B-](F)(F)n3ccc(C)c32)cc1"
category = "Not met"

[[record]]
compound = "Cc1ccc(-n2c(-c3ccccc3O)nc(-c3ccccc3O)c2-c2ccccc2O)cc1"
category = "Met"

[[record]]
compound = "COc1ccc(-n2nc(C#N)c(N3CCCC3)n2)cc1"
category = "Met"

[[record]]
compound = "CSc1sc(C(N)=O)c2nnn(C)c(=O)c12"
category = "Met"

[[record]]
compound = "CN(C)c1ccc(/C=C2\\CC/C(=C\\c3ccc(N(C)C)cc3)C2=O)cc1"
category = "Not met"

[[record]]
compound = "Cc1ccc(C2=C3C=CC(/C=C/c4ccccc4)=[N+]3[B-](F)(F)n3c(Cl)ccc32)cc1"
category = "Met"

[[record]]
compound = "COc1c2ccccc2c(OC)c2c1c1c(F)cccc1n2C"
category = "Met"

[[record]]
compound = "CC(=O)Nc1ccc(/C=C2\\OC(=O)c3cc(N)ccc32)cc1"
category = "Not met"

[[record]]
compound = "CCC1=C(C)C(=O)n2c1cc1c(CCC(=O)O)c(C)c(C)n1c2=O"
category = "Met"

[[record]]
compound = "c1ccc(N(c2ccccc2)c2ccc(-c3ncc(-c4ccncc4)s3)cc2)cc1"
category = "Not met"

[[record]]
compound = "COC(=O)C(NC(=O)OC(C)(C)C)c1ccc2oc(-c3cc(OC)ccc3OC)nc2c1 (stereo unspecified)"
category = "Met"

[[record]]
compound = "CN(C)c1ccc2c3c(c(=O)oc2c1)C=c1cc2c(cc1O3)=[N+](CCC(=O)O)CCC2"
category = "Met"

[[record]]
compound = "COc1ccccc1C1=C2C(C)=CC(C)=[N+]2[B-](F)(F)n2c(C)cc(C)c21"
category = "Met"

[[record]]
compound = "CNCCCN1c2ccccc2CCc2ccccc21"
category = "Not met"

[[record]]
compound = "O=[N+]([O-])c1ccc(/C=C/c2c[nH]c3ccccc23)cc1"
category = "Not met"

[[record]]
compound = "Cc1ccc(-c2nc(-c3cccc(C#N)c3)[nH]c2-c2ccc(C)cc2)cc1"
category = "Met"

[[record]]
compound = "COc1ccc(/C=C/C(=O)c2ccccc2O)cc1OC"
category = "Met"

[[record]]
compound = "COc1ccc(-c2nc(-c3ccccc3)c(-c3ccccc3)[nH]2)cc1"
category = "Met"

[[record]]
compound = "CC1(C)C(/C=C/C2=C(Oc3ccc(CCN=C=S)cc3Cl)C(=C/C=C3/N(CCCS(=O)(=O)[O-])c4ccccc4C3(C)C)/CCC2)=[N+](CCCS(=O)(=O)[O-])c2ccccc21"
category = "Met"

[[record]]
compound = "CCN(CC)/C(C)=N\\c1ccc2c3c(cccc13)C(=O)c1ccccc1-2"
category = "Met"

[[record]]
compound = "CCn1c2ccccc2c2cc(/C=C3\\C(=O)c4ccccc4S3(=O)=O)ccc21"
category = "Not met"

[[record]]
compound = "COc1cc(-c2nc3c4cccnc4c4ncccc4c3[nH]2)c(OC)cc1/C=C/c1nc2ccccc2[nH]1"
category = "Met"

[[record]]
compound = "CCOC(=O)C1=CN(c2ccccc2)C=C(C(=O)OCC)C1c1ccccc1"
category = "Met"

